system: TO-N3-2 (biotin conjugate); assay: pull-down binding Z-score (relative to library population); higher = stronger binding; conditions: RNA library: Library-2
Reported values of pull-down binding Z-score for individual entries

Sequence code	pull-down binding Z-score
CUGAAAAAUGGGAAUCUGGAGUAAAAGACUGUGUUGUAUUACACAGUUACUUCACUUCAGACUAUUACCAG	-0.48
UGGCCGCAAAUUGCACAAUUUGCCCCCA [SHAPE_invitro_SARS-CoV-2_Motif_532]	-0.6
UUUUGCCAUUACUUUUACAGGCAAAA [hsa-mir-548aa-1]	-1.28
CCCUCAUAUGGCAGUUGGCGAGGGCCCAGUGAG [hsa-mir-6769a]	1.53
GGAAAUGAUUCC [IAV_invivo_PB2_1_Motif_4+IAV_invivo_PB2_1_Motif_4]	-1.3
UGAGUACAUUAUUUAUGAUUAAUCA [hsa-mir-376a-1]	-0.847
CCCGGAUACCUCAGAAAUUCGG [hsa-mir-760]	0.267
UCAUUUAUGUGAACUAAAAUAUAAAUUU [hsa-mir-513a-2_513a-1]	-1.11
UAAUUAUAAAUUACCAGAUGAUUUUACAGGCUGCGUUAUAGCUUGGAAUUCUAACAAUCUUGAUUCUAAGGUUGGUGGUAAUUAUAAUUA	-0.713
AUAAAAUAGAAGAAUUAUUCUAUUCUUAU	-1.22
AAGGCUGAUGAAACUCAAGCCUU	-0.106
GGAACCUAGUAAUAGGUUUCC [DMSMaPseq_invitro_SARS-CoV-2_Motif_479]	-0.779
UCCAGACGGAGAUGCGA [hsa-mir-611]	0.858
UUGAUUCAGUAAAACAUUCAA [hsa-mir-891b]	-0.902
CAGGCAAGAAGGAUACUUACCUG [U1snRNP5ss-25]	-0.695
AGUGCUAGGACACU [hsa-mir-374c]	-0.579
UCCUCAGACCAGGUGGCUCCCGAGCCACCCCAGGCUGUAGG [hsa-mir-2392]	1.75
UUACAGAUCUUUACCAGGAGUUUUCUGUGGUGUAGAUGCUGUAA [SHAPE_invivo_SARS-CoV-2_Motif_187]	-1

###

test system: TO-N3 (biotin conjugate); assay: pull-down binding Z-score (relative to library population); higher = stronger binding; conditions: RNA library: Library-2
Labels assigned by pull-down binding Z-score range: low: < -0.4; intermediate: ≥ -0.4 and < 0.5; high: ≥ 0.5

Sequence code	Category
GCAGAGCAGGACGCCGCUGCUGC [hsa-mir-8072]	high
GCGCUGCCAGAAACUGGCUAAGCGC [bulge-UA]	low
GGAGAGUAUGGUCACAGCAGCAUCCUCC [hsa-mir-6780a]	intermediate
AAUUAUAAAUUACCAGAUGAUUUUACAGGCUGCGUUAUAGCUUGGAAUUCUAACAAUCUUGAUUCUAAGGUUGGUGGUAAUUAUAAUU	low
UUGCCCAA [hsa-mir-548bb]	intermediate
GGGUACGACUUUGAAAGGGAGGGAUACUCUCUAGUCGGAAUAGACCC [IAV_invivo_NP_5_Motif_16+IAV_invivo_NP_5_Motif_16]	high
GUUGUCGCUUCCAAGAAAAGGACGAAGAUGACAAU [SHAPE_invitro_SARS-CoV-2_Motif_248]	intermediate
CAACAAAAGUUG [SHAPE_invivo_SARS-CoV-2_Motif_413]	low
UUUCUCUUGUCCAAAGGAAAAGAAG [hsa-mir-524]	low
CAGGCCACAAAUAGGCGUG	low
CGUAGGCGUUAUGAUUUCUGACCUAUG [hsa-mir-379]	intermediate
GUUUCGGAAGAGAC	low
GGCCAGCAGAGGCC [IAV_invivo_PA_3_Motif_7+IAV_invivo_PA_3_Motif_7]	high
CCUGCACCACGCACAUUGCUAACUAAGG [SHAPE_invitro_SARS-CoV-2_Motif_318]	intermediate
CUACACUAGUGCCACAAGAGCACUAUGUUAG	intermediate
UAAACCACCCAUUAGUUUUCCAUUGUGUGCUAAUGGACAAGUUUUUGGUUUA [SHAPE_invivo_SARS-CoV-2_Motif_310]	low
UGGUGGGAGAGGAGCCCCACUGUGGAAGUCUGACCCCCACA [hsa-mir-6785]	high
AGUGCCUCACAGCCGCACAGGACCGAGGAUGCU [hsa-mir-4737]	intermediate
GGCCACCCAGGGAGUAAGUAGCC [hsa-mir-4480]	high
GGGCUCAUACCC [IAV_invivo_HA_4_Motif_7+IAV_invivo_HA_4_Motif_7]	intermediate
GGGGGCAGGCUGCCACCUCCUG [hsa-mir-8089]	high

// data source = the supplement of paper PMC11865577
